For each of the compounds below, state its Euclidean distance.
- System: HEPG2
- protocol: Euclidean distance of Cell Painting phenotypic profile (signed KS, 77 features) to DMSO centroid (dimensionless distance); 5 or 10 uM (library dependent); higher = stronger phenotypic change vs DMSO (phenoactivity)
- settings: 48 h
Structures can show the parent of a compound that is named as a salt.
Field format: numeric only.

Task: Answer with reported Euclidean distance of CC1(C)CC(=O)c2c(C(F)(F)F)nn(-c3ccc(C(N)=O)c(N[C@H]4CC[C@H](O)CC4)c3)c2C1
Output: 3.83

Task: Answer with reported Euclidean distance of C[C@@](Cc1ccc(O)c(O)c1)(NN)C(=O)O
Output: 0.878

Task: Answer with reported Euclidean distance of CCCC(CCC)C(N)=O [Valpromide]
Output: 0.77

Task: Answer with reported Euclidean distance of CC(C)CN(C[C@@H](OP(=O)(O)O)[C@H](Cc1ccccc1)NC(=O)O[C@H]1CCOC1)S(=O)(=O)c1ccc(N)cc1 [Fosamprenavir calcium salt]
Output: 0.527
